For each of the compounds below, state its minimum viability across doses.
tested on: UO-31; experiment: minimum viability across doses, drug + dasatinib, relative to DMSO (fraction); higher = less growth inhibition; conditions: treatment: drug + dasatinib (fixed dose, not stated); 5 days
Please reply with the number alone, leaving off any unit.

I would be grateful if you could share the reported minimum viability across doses for COc1cc(Nc2c(C#N)cnc3cc(OCCCN4CCN(C)CC4)c(OC)cc23)c(Cl)cc1Cl [Bosutinib (SKI-606)] + Cc1nc(Nc2ncc(C(=O)Nc3c(C)cccc3Cl)s2)cc(N2CCN(CCO)CC2)n1 .
0.0097

Reported minimum viability across doses for O=C1NC(=O)C(=Cc2ccc(-c3ccc(F)cc3)o2)S1 (stereo in doubt) + Cc1nc(Nc2ncc(C(=O)Nc3c(C)cccc3Cl)s2)cc(N2CCN(CCO)CC2)n1 : what is it?
0.657

Recorded minimum viability across doses for CC[C@@H]1C(=O)N(C)c2cnc(Nc3ccc(C(=O)N[C@H]4CC[C@H](N5CCN(CC6CC6)CC5)CC4)cc3OC)nc2N1C(C)C [BI6727 (Volasertib)] + Cc1nc(Nc2ncc(C(=O)Nc3c(C)cccc3Cl)s2)cc(N2CCN(CCO)CC2)n1 , please?
0.0151

Given CN(C)C1CCN(C(=O)c2ccc(NC(=O)Nc3ccc(-c4nc(N5CCOCC5)nc(N5CCOCC5)n4)cc3)cc2)CC1 + Cc1nc(Nc2ncc(C(=O)Nc3c(C)cccc3Cl)s2)cc(N2CCN(CCO)CC2)n1 , state its recorded minimum viability across doses.
0.117

###

system: ACHN; assay: AUC of dose-response viability curve, drug alone (arbitrary (AUC of normalised viability)); higher = less growth inhibition; conditions: treatment: drug alone; 5 days
measurement.type: AUC of dose-response viability curve
Lab note: jot the number down without any unit.

Report AUC of dose-response viability curve for CC[C@@H]1C(=O)N(C)c2cnc(Nc3ccc(C(=O)N[C@H]4CC[C@H](N5CCN(CC6CC6)CC5)CC4)cc3OC)nc2N1C(C)C tested on ACHN.
1.87

Lookup: AUC of dose-response viability curve / ACHN / COCC[n+]1c2c(n(Cc3cnccn3)c1C)C(=O)c1ccccc1C2=O
0.648

// lookup AUC of dose-response viability curve | system=ACHN | key= CN(C)C1CCN(C(=O)c2ccc(NC(=O)Nc3ccc(-c4nc(N5CCOCC5)nc(N5CCOCC5)n4)cc3)cc2)CC1
2.66

Reported AUC of dose-response viability curve for ACHN, given C[C@@H]1CN(CC(=O)Nc2ccc3c(c2)Cc2cccc(-c4cc(=O)cc(N5CCOCC5)o4)c2S3)C[C@H](C)O1 ?
3.15

Short answer please: AUC of dose-response viability curve, ACHN, entry Cc1ccc(Nc2nccc(N(C)c3ccc4c(C)n(C)nc4c3)n2)cc1S(N)(=O)=O.Cl [Pazopanib HCl]
3.21

I'm curious: which AUC of dose-response viability curve was measured for S=C(NCc1ccc2c(c1)OCO2)N1CCN(c2ncnc3c2oc2ccccc23)CC1 tested on ACHN?
2.69

Look up AUC of dose-response viability curve with ACHN for this compound: CC(=O)Nc1ccc(NC(=S)NC(=O)c2ccc(C(C)(C)C)cc2)cc1
2.75

Identify the measured AUC of dose-response viability curve of FC(F)(F)c1ccc(Nc2nc3cc(Oc4ccnc(-c5ncc(C(F)(F)F)[nH]5)c4)ccc3[nH]2)cc1 for ACHN.
3.47

Query AUC of dose-response viability curve on ACHN for CC(C)n1nc(-c2ccc3oc(N)nc3c2)c2c(N)ncnc21
0.901

Enter reported AUC of dose-response viability curve observed with ACHN for O=c1cc(N2CCOCC2)oc2c(-c3ccccc3)cccc12
2.91

Fill in the recorded AUC of dose-response viability curve for this compound, with ACHN as test system: COc1cc2c(Oc3ccc(NC(=O)C4(C(=O)Nc5ccc(F)cc5)CC4)cc3F)ccnc2cc1OCCCN1CCOCC1
2.6

Lab note: need AUC of dose-response viability curve with ACHN for entry O=C1NC(=O)/C(=C/c2ccc3c(c2)OC(F)(F)O3)S1 , please look it up.
3.46

Enter reported AUC of dose-response viability curve observed with ACHN for Cc1cc(C)c(/C=C2\C(=O)Nc3ccccc32)[nH]1 [Semaxanib (SU5416)]
2.92

Param readout = AUC of dose-response viability curve; param system = ACHN; param query = COc1ccc2c(c1OC)N=C(NC(=O)c1cccnc1)N1CCN=C21 ; response: value
3.1

Provide the documented AUC of dose-response viability curve with ACHN as the system for Cc1ccc(NC(=O)c2ccc(CN3CCN(C)CC3)cc2)cc1Nc1nccc(-c2cccnc2)n1
3.41

###

For each entry below, report its minimum viability across doses value.
test system: ACHN; test: minimum viability across doses, drug alone, relative to DMSO (fraction); higher = less growth inhibition; details: treatment: drug alone; 5 days
Just the number, please, no unit attached.

Which value of minimum viability across doses has been reported for COC1=CC(c2cc3ccccc3[nH]2)=N/C1=C\c1[nH]c(C)cc1C.CS(=O)(=O)O [Obatoclax mesylate (GX15-070)] in the records?
0.0118

So what's the measured minimum viability across doses for this one? Nc1cc(C(F)(F)F)c(-c2cc(N3CCOCC3)nc(N3CCOCC3)n2)cn1
0.0858

Could you share which minimum viability across doses value was measured for CCN(CC)CCCCNc1ncc2cc(-c3cc(OC)cc(OC)c3)c(NC(=O)NC(C)(C)C)nc2n1 ?
0.0868

Item CN(C)C1CCN(C(=O)c2ccc(NC(=O)Nc3ccc(-c4nc(N5CCOCC5)nc(N5CCOCC5)n4)cc3)cc2)CC1 has what recorded minimum viability across doses?
0.167

###

system: 769-P; test: GI50, drug alone; higher = less potent; conditions: treatment: drug alone; 5 days
Give GI50, drug alone for every item shown.

Name the recorded GI50, drug alone for CNC(=O)c1cc(Oc2ccc(NC(=O)Nc3ccc(Cl)c(C(F)(F)F)c3)cc2)ccn1.Cc1ccc(S(=O)(=O)O)cc1 .
> 10 µM

Endpoint output: GI50, drug alone of CC[C@H](Nc1ncnc2[nH]cnc12)c1nc2cccc(F)c2c(=O)n1-c1ccccc1 . Value?
> 10 µM

Could you tell me which GI50, drug alone is on file for CN1CCN(C2CCN(C(=O)Nc3cc(Oc4ccc(NC(=O)C5(C(=O)Nc6ccc(F)cc6)CC5)c(F)c4)ccn3)CC2)CC1 [Golvatinib (E7050)] ?
9.71 µM

###

system: 769-P; assay: AUC of dose-response viability curve, drug alone (arbitrary (AUC of normalised viability)); higher = less growth inhibition; conditions: treatment: drug alone; 5 days
Provide the reported AUC of dose-response viability curve of each item.
Just the number, please, no unit after it.

Look up AUC of dose-response viability curve: O=C(NOC[C@H](O)CO)c1ccc(F)c(F)c1Nc1ccc(I)cc1F
2.27

Field request: AUC of dose-response viability curve | item: C=CCc1cccc(/C=N/NC(=O)CN2CCN(Cc3ccccc3)CC2)c1O [PAC-1]
2.94

Look at this compound and give its reported AUC of dose-response viability curve. CC(C)n1nc(-c2ccc3oc(N)nc3c2)c2c(N)ncnc21 [INK 128]
1.34

Looking for the measured AUC of dose-response viability curve of CC(C)c1cnn2c(NCc3ccccc3)cc(NCCCCCCN)nc12.Cl [BS-181 HCl] , can you help?
3.58

For the compound shown here, O=C1NC(=O)C(c2ccccc2[N+](=O)[O-])=C1Nc1ccc(O)c(Cl)c1 , give the reported AUC of dose-response viability curve.
3.29

Requested read-out: AUC of dose-response viability curve. Entry: S=C(NCc1ccc2c(c1)OCO2)N1CCN(c2ncnc3c2oc2ccccc23)CC1 [Amuvatinib (MP-470)_R2]
3.38

So what does the record say about AUC of dose-response viability curve for OCc1ccc(-c2ccc(-c3ccc(CO)s3)o2)s1 ?
1.27

# get_value(readout='AUC of dose-response viability curve', item= CN1CCN(c2ccc([N+](=O)[O-])c3no[n+]([O-])c23)CC1 )
2.59

Need AUC of dose-response viability curve of COc1cc2nccc(Oc3ccc(NC(=O)NC4CC4)c(Cl)c3)c2cc1C(N)=O [E7080 (Lenvatinib)] , thanks.
3.46

Can you look up the measured AUC of dose-response viability curve of COc1cc(Nc2ncc3c(n2)-c2ccc(Cl)cc2C(c2c(F)cccc2OC)=NC3)ccc1C(=O)O [MLN8237 (Alisertib)] for me?
2.44

Return reported AUC of dose-response viability curve; argument: C=CC(=O)Nc1cccc(Oc2nc(Nc3ccc(N4CCN(C)CC4)cc3)ncc2Cl)c1 [WZ3146]
2.71

For the compound Cc1ccc(C(=O)Nc2cccc(C(F)(F)F)c2)cc1Nc1nc(-c2cccnc2)nc2c1cnn2C [NVP-BHG712] , what AUC of dose-response viability curve is on record?
3.13

AUC of dose-response viability curve lookup needed for CN(C[C@@H]1COCCO1)S(=O)(=O)Nc1ccc2ccc3ncc(-c4cnn(C)c4)cc3c(=O)c2c1 [MK-2461] , thanks.
3.6

GET /values?readout=AUC of dose-response viability curve&item= CC(C)CC(=O)Nc1n[nH]c2c1CN(C(=O)C1CCN(C)CC1)C2(C)C
3.01

GET /values?readout=AUC of dose-response viability curve&item= O=C(NOCC1CC1)c1ccc(F)c(F)c1Nc1ccc(I)cc1Cl
2.96

For CNC(=O)c1cc(Oc2ccc(NC(=O)Nc3ccc(Cl)c(C(F)(F)F)c3)cc2)ccn1.Cc1ccc(S(=O)(=O)O)cc1 [Sorafenib (Nexavar)] , what is its reported AUC of dose-response viability curve?
3.31
